Every entry's value here was drawn from patent US20130096067A1.

System: Raf-1^gof intestinal tumors
Conditions: screen of 480 ICCB compounds in vials; compounds fed to flies with one-day old Raf-1^gof tumors, assessed three days later; esg-Gal4 luciferase
Reported Log2 (fold) (luciferase activity, log2 of the fold difference relative to DMSO controls) by item:
// no unit string in output, number only

Illustrative cases are given below, each with its answer.
>  <molecule>
[Cl-].c1ccc2c(c1)[I+]c1ccccc1-2

>  <result.number>
−0.576

$$$$
>  <molecule>
O=c1[nH]c2cc(C(F)(F)F)ccc2n1-c1cc(C(F)(F)F)ccc1O

>  <result.number>
−0.495

$$$$
>  <molecule>
O=S(=O)(c1cccc2cnccc12)N1CCCNCC1

>  <result.number>
−0.326

$$$$

### Prompt Returns the measured Log2 (fold) (luciferase activity, log2 of the fold difference relative to DMSO controls) for the input molecule. Input: CCCCC[C@H](O)/C=C/[C@H]1[C@H](O)CC(=O)[C@@H]1C/C=C\CCCC(=O)O [PROSTAGLANDIN E2]
### Response −0.223

### Prompt Returns the measured Log2 (fold) (luciferase activity, log2 of the fold difference relative to DMSO controls) for the input molecule. Input: COc1cccc2c1C(=O)c1c(O)c3c(c(O)c1C2=O)C[C@@](O)(C(=O)CO)C[C@@H]3O[C@H]1C[C@H](N)[C@H](O)[C@H](C)O1
### Response −0.520

* * *

Test system: Raf-1^gof intestinal tumors
Test: Luciferase screen of FDA-approved (NCI) drugs in 96-well plates, flies with Raf-1^gof intestinal tumors
Assay type: in vivo, Drosophila
Details: six-day protocol: single dose for three days, then another dose for three more days
Counter-ions that a name gives are not always drawn.
Answer 0 (no) if Day 6 Fold is under 1 fold, and 1 (yes) if it is 1 fold or more.

Some solved entries appear below for comparison.
>  <compound>
NCCCNCCSP(=O)(O)O

>  <class.assignment>
1 (yes)

$$$$
>  <compound>
CC(=O)O[C@]1(C(C)=O)CC[C@H]2[C@@H]3C=C(C)C4=CC(=O)CC[C@]4(C)[C@H]3CC[C@@]21C [Megestrol acetate]

>  <class.assignment>
1 (yes)

$$$$

### Prompt Is it the case that Nc1nc2nc[nH]c2c(=S)[nH]1 has Day 6 Fold reaching or exceeding 1 fold?
### Response 1 (yes)

### Prompt Is it the case that CN(Cc1cnc2nc(N)nc(N)c2n1)c1ccc(C(=O)N[C@@H](CCC(=O)O)C(=O)O)cc1 [Methotrexate] has Day 6 Fold reaching or exceeding 1 fold?
### Response 0 (no)

### Prompt Is it the case that CN(C)c1nc(N(C)C)nc(N(C)C)n1 has Day 6 Fold reaching or exceeding 1 fold?
### Response 0 (no)

### Prompt Is it the case that CC/C(=C(\c1ccccc1)c1ccc(OCCN(C)C)cc1)c1ccccc1 [Tamoxifen citrate] has Day 6 Fold reaching or exceeding 1 fold?
### Response 0 (no)

### Prompt Is it the case that O=P(O)(O)C(O)(Cn1ccnc1)P(=O)(O)O has Day 6 Fold reaching or exceeding 1 fold?
### Response 1 (yes)

* * *

System: Raf-1^gof intestinal tumors
Settings: in vivo
Reported Fold (luciferase activity, fold difference relative to DMSO controls) by item:
// no unit string in output, number only

>  <compound>
N#CC(C#N)=Cc1ccc(O)cc1 [Tyrphostin-8]

>  <result.number>
0.796

$$$$

### Prompt Returns the measured Fold (luciferase activity, fold difference relative to DMSO controls) for the input compound. Input: N#Cc1cc2c(OCC(O)CN3CCN(C(c4ccccc4)c4ccccc4)CC3)cccc2[nH]1 (centres unmarked) [SDZ-201106]
### Response 0.804

### Prompt Returns the measured Fold (luciferase activity, fold difference relative to DMSO controls) for the input compound. Input: CN(C)C(=O)C(CCN1CCC(O)(c2ccc(Cl)cc2)CC1)(c1ccccc1)c1ccccc1 [LOPERAMIDE]
### Response 0.786

### Prompt Returns the measured Fold (luciferase activity, fold difference relative to DMSO controls) for the input compound. Input: CC[C@H](CO)Nc1nc(NCc2ccccc2)c2ncn(C(C)C)c2n1 [roscovitine]
### Response 0.659

### Prompt Returns the measured Fold (luciferase activity, fold difference relative to DMSO controls) for the input compound. Input: O=c1c(O)c(-c2ccc(O)c(O)c2)oc2cc(O)cc(O)c12 [quercetin]
### Response 0.737

### Prompt Returns the measured Fold (luciferase activity, fold difference relative to DMSO controls) for the input compound. Input: COc1ccc(CCN(C)CCCC(C#N)(c2ccc(OC)c(OC)c2)C(C)C)cc1OC (centres unmarked)
### Response 0.838

### Prompt Returns the measured Fold (luciferase activity, fold difference relative to DMSO controls) for the input compound. Input: COC(=O)C1=C(C)NC(C)=C(C(=O)OCCCN2CCC(c3ccccc3)(c3ccccc3)CC2)[C@H]1c1cccc([N+](=O)[O-])c1 [NIGULDIPINE]
### Response 0.812

### Prompt Returns the measured Fold (luciferase activity, fold difference relative to DMSO controls) for the input compound. Input: CCCCC/C=C\C/C=C\C/C=C\C/C=C\CCCC(=O)NCC(=O)O [N-ARACHIDONOYLGLYCINE]
### Response 0.664

* * *

Reported Log2 (fold) (luciferase activity, log2 of the fold difference relative to DMSO controls) by item:
Test system: Raf-1^gof intestinal tumors
Conditions: screen of 480 ICCB compounds in vials; compounds fed to flies with one-day old Raf-1^gof tumors, assessed three days later; esg-Gal4 luciferase
Peptide text beside a SMILES is read from it. * marks the point of attachment. CH2Cl = ClC*
// no unit string in output, number only

### Prompt Returns the measured Log2 (fold) (luciferase activity, log2 of the fold difference relative to DMSO controls) for the input compound. Input: C=CCNC1=C2C[C@@H](C)C[C@H](OC)[C@H](O)[C@@H](C)/C=C(\C)[C@H](OC(N)=O)[C@@H](OC)/C=C\C=C(/C)C(=O)NC(=CC1=O)C2=O
### Response −0.433

### Prompt Returns the measured Log2 (fold) (luciferase activity, log2 of the fold difference relative to DMSO controls) for the input compound. Input: CC(C)[C@@H]1NC(=O)[C@H](C)OC(=O)[C@@H](C(C)C)NC(=O)[C@@H](C(C)C)OC(=O)[C@H](C(C)C)NC(=O)[C@H](C)OC(=O)[C@@H](C(C)C)NC(=O)[C@@H](C(C)C)OC(=O)[C@H](C(C)C)NC(=O)[C@H](C)OC(=O)[C@@H](C(C)C)NC(=O)[C@@H](C(C)C)OC1=O
### Response −0.408

### Prompt Returns the measured Log2 (fold) (luciferase activity, log2 of the fold difference relative to DMSO controls) for the input compound. Input: C[C@@H]1C[C@@H]([C@H](O)CC2CC(=O)NC(=O)C2)C(=O)[C@@H](C)C1 [cycloheximide, reference compound]
### Response −1.568

### Prompt Returns the measured Log2 (fold) (luciferase activity, log2 of the fold difference relative to DMSO controls) for the input compound. Input: CCCCCCCCCCCCCCCC(=O)OCC(COP(=O)(O)O)OC(=O)CCCCCCCCCCCCCCC (stereo not drawn)
### Response −0.288

### Prompt Returns the measured Log2 (fold) (luciferase activity, log2 of the fold difference relative to DMSO controls) for the input compound. Input: C[C@H](N)C(=O)N[C@@H](C)C(=O)N[C@@H](Cc1ccccc1)C(=O)CCl [Ala-Ala-Phe-CMK] (H-Ala-Ala-Phe-CH2Cl)
### Response −0.738

### Prompt Returns the measured Log2 (fold) (luciferase activity, log2 of the fold difference relative to DMSO controls) for the input compound. Input: CCN(CC)CCNC(=O)c1ccc(N)cc1 [PROCAINAMIDE]
### Response −0.346

* * *

System: Raf-1^gof intestinal tumors
Settings: screen of 480 ICCB compounds in vials; compounds fed to flies with one-day old Raf-1^gof tumors, assessed three days later; esg-Gal4 luciferase
Reported Log2 (fold) (luciferase activity, log2 of the fold difference relative to DMSO controls) by item:
// no unit string in output, number only

>  <compound>
C#CCN(C)C(C)Cc1ccccc1 (centres unmarked)

>  <result.number>
−0.642

$$$$
>  <compound>
CCCC[C@@H](C)[C@@H](OC(=O)C[C@@H](CC(=O)O)C(=O)O)[C@H](C[C@@H](C)C[C@H](O)CCCC[C@@H](O)C[C@H](O)[C@H](C)N)OC(=O)C[C@@H](CC(=O)O)C(=O)O

>  <result.number>
−0.685

$$$$
>  <compound>
CC1=C(C)C(=O)C(CCCCC#CCCCC#CCO)=C(C)C1=O

>  <result.number>
−0.444

$$$$
>  <compound>
CS(=O)(=O)Nc1ccc([N+](=O)[O-])cc1Oc1ccccc1 [Nimesulide]

>  <result.number>
−0.264

$$$$

Could you now look at the following compound, please?
### Prompt Returns the measured Log2 (fold) (luciferase activity, log2 of the fold difference relative to DMSO controls) for the input compound. Input: CCCCCCCCCCCCC/C=C/[C@@H](O)[C@H](CO)NC(=O)CCCCCCCCCCCCCCC [C16 CERAMIDE]
### Response −0.496
